target: human GLP-1 receptor (human, UniProt P43220 24-463); assay: cell-based or functional assay
Square brackets hold non-standard residues; d marks the D form. Ends that are not written are not given here.
Answer each item with its documented hGLP-1 R EC50 (cAMP).
Dear colleague, please send the value followed by its unit.

Some binders with recorded hGLP-1 R EC50 (cAMP):
INSERT INTO assay_data (binder, property_label, value_measured) VALUES
  ('HGEGTFTSDLSKQMEEEAVRLFIEWLKNYGWTDF (C-terminal amide) [Exendin-4(1-28)-[Thr4]Gastrin6]', 'hGLP-1 R EC50 (cAMP)', '0.044 nM'),
  ('HGEGTFTSELSKYLEEEAVRLFIEFLK[Peg3][Peg3]YGFLDF-NH2 [[Glu9,Leu14,Phe25,Tyr13]Exendin-4(1-27)-Peg3-Peg3-[Leu4,Phe3]Gastrin6]', 'hGLP-1 R EC50 (cAMP)', '0.032 nM');

Then this binder:
**Query** Sample HGEGTFTSDLSKQMEEEAVRLFIEWLKEEEEAYGWLDF (C-terminal amide) [Exendin-4(1-27)-[Leu4]Gastrin11] — what was its hGLP-1 R EC50 (cAMP)?
**Result** 0.1 nM
